test system: Fibroblast; experiment: Incucyte cell viability with human fibroblast; type: toxicity, cell-based; conditions: 6 h, 10 µM, compound concentration 10 uM, replicate number 1, timepoint 6 hours; also: filed as whole numbers so only -1 and 0 and 1 occur
property: Growth Rate
Reply with the value as a number alone.

COc1cccc(OC)c1-c1cc(C(=O)NC2(C(=O)O)C3CC4CC(C3)CC2C4)nn1-c1ccc(C(=O)N(C)CCCN(C)C)cc1C(C)C (stereo not given)    0
C[C@@]1(Cc2ccc(C#N)cc2)C(=O)N(c2cc(Cl)cc(Cl)c2)c2ncc(C(=O)NC3(c4nc(C5CCC5)no4)CC3)n21    0
CC[C@@H]1[C@H](F)C(=O)N[C@@H]1COc1nccc2cc(C(N)=O)c(OC)cc12    0

# input Reported Growth Rate for `Cc1nc(C2CCN(C(=O)c3ccc(OC(F)(F)F)cc3N)CC2)c2ncc(N3CCN(C)CC3)cc2n1` : what is it?
# output 1

# input What value of Growth Rate has been recorded for this entry: `Cc1cccc(-c2cnc3occ(-c4ccc(C(=O)O)c(C5CCCC5)c4)c3c2)c1`
# output 0

---

system: Fibroblast; assay: Multiplex assay against human fibroblast; format: toxicity, cell-based; settings: 24 h, 10 µM, compound concentration 10 uM, replicate 1
If the reported Population Healthy Nuclei (%) equals or exceeds 40%, assign yes (1). If not, assign no (0).

Solved cases below.
c1cn2cc(-c3ccc4cn[nH]c4c3)nc(Nc3ccc(N4CCOCC4)cc3)c2n1 [ENTOSPLETINIB]    no (0)
COc1cccc([C@@H](C)NCCCc2ccccc2Cl)c1.Cl [TECALCET HYDROCHLORIDE]    yes (1)
CN(C)CC#Cc1ccc(OCCCc2sc(N3CCc4cccc(C(=O)Nc5nc6ccccc6s5)c4C3)nc2C(=O)O)c(F)c1 [A-1155463]    yes (1)
Cn1cc(-c2[nH]c3cc(NC(=O)[C@H](N)C4CCCCC4)cc4c3c2C=NNC4=O)cn1    no (0)
Cc1csc2c(N[C@@H](C)CN3CCN(S(=O)(=O)c4ccc(Cl)c(Cl)c4)CC3)ncnc12    no (0)
COc1cc(-n2cnc3cc(-c4ccc(Cl)cc4)sc3c2=O)ccc1OCCN1CCCC1    no (0)
CN1CCCC(n2nc(Cc3ccc(Cl)cc3)c3ccccc3c2=O)CC1.Cl (stereo not drawn) [AZELASTINE HYDROCHLORIDE]    yes (1)
C=CC(=O)Nc1cccc(C(=O)Nc2ccc(Nc3cc(-c4[nH]c(SC)nc4C)ccn3)cc2)c1    yes (1)
Cc1nc(-c2ccc(-c3ccc(C(=O)N4CCc5cc6c(cc54)C4(CCN(C)CC4)CO6)cc3)c(C)c2)no1 [SB-224289]    no (0)
CNc1nc(NCc2ccc(NS(C)(=O)=O)cc2Cl)cc(-c2ccccn2)n1    yes (1)

# input Hello, I need to know if CN1CCN(CCOc2cc(OC3CCOCC3)c3c(Nc4c(Cl)ccc5c4OCO5)ncnc3c2)CC1 [SARACATINIB] has measured Population Healthy Nuclei (%) not below 40%. Thanks!
# output yes (1)

# input Hi team, for C[C@@H](NCCCc1cccc(C(F)(F)F)c1)c1cccc2ccccc12.Cl [CINACALCET HYDROCHLORIDE] , is the recorded Population Healthy Nuclei (%) at or above 40%?
# output no (0)

# input Please check the record CN(C)C(=O)N[C@H]1CC[C@H](CCN2CCN(c3cccc(Cl)c3Cl)CC2)CC1.Cl [CARIPRAZINE HYDROCHLORIDE] and state if its Population Healthy Nuclei (%) is at or above 40%.
# output yes (1)

# input Check if Population Healthy Nuclei (%) >= 40% (inclusive). Item: `Cc1[nH]c(/C=C2\C(=O)Nc3ccc(S(=O)(=O)N(C)c4cccc(Cl)c4)cc32)c(C)c1C(=O)N1CCN(C)CC1`
# output yes (1)

# input Check this compound for Population Healthy Nuclei (%) at or above 40%: CC[C@H](C)C(=O)O[C@H]1C[C@@H](C)C=C2C=C[C@H](C)[C@H](CC[C@@H]3C[C@@H](O)CC(=O)O3)[C@H]21 [LOVASTATIN]
# output yes (1)

---

tested on: U2OS; assay: Multiplex assay against U2OS; type: toxicity, cell-based; details: human, 48 h, 1 µM, compound concentration 1 uM, replicate 2
Population Apoptotic (%) values, listed per item
Return type: number; implicit unit %.

Please review the entries below; each comes with its answer.
CN1CCN(CCOc2cc(OC3CCOCC3)c3c(Nc4c(Cl)ccc5c4OCO5)ncnc3c2)CC1 [SARACATINIB]    38
CN1CCCC(n2nc(Cc3ccc(Cl)cc3)c3ccccc3c2=O)CC1.Cl (stereo unspecified) [AZELASTINE HYDROCHLORIDE]    50
CC(C)(O)CNc1ncc(-c2ccnc(Nc3ccnc(Cl)c3)n2)c(CC2CC2)n1    50
COc1cccc([C@@H](C)NCCCc2ccccc2Cl)c1.Cl [TECALCET HYDROCHLORIDE]    63
COc1ncc(-c2ccc3nccc(-c4ccnnc4)c3c2)cc1NS(=O)(=O)c1ccc(F)cc1F [OMIPALISIB]    47

Here is the next item to consider.
# input I would be grateful if you could share the reported Population Apoptotic (%) for c1cn2cc(-c3ccc4cn[nH]c4c3)nc(Nc3ccc(N4CCOCC4)cc3)c2n1 [ENTOSPLETINIB] .
# output 37

---

system: Fibroblast; test: Multiplex assay against human fibroblast; format: toxicity, cell-based; details: 24 h, 10 µM, compound concentration 10 uM, replicate 1
Parameter Total Cell Count: see the listing below.
Respond with the number and no other words.

Cl.N#Cc1ccc2[nH]cc(CCCCN3CCN(c4ccc5oc(C(N)=O)cc5c4)CC3)c2c1 [VILAZODONE HYDROCHLORIDE]    197
CC[C@H](C)C(=O)O[C@H]1C[C@@H](C)C=C2C=C[C@H](C)[C@H](CC[C@@H]3C[C@@H](O)CC(=O)O3)[C@H]21 [LOVASTATIN]    110
O=C1NCN(c2ccccc2)C12CCN(CCCOc1ccc(F)cc1)CC2 [SPIRAMIDE]    177

Pending compound:
# input # query: Total Cell Count of entry CN(C)CC#Cc1ccc(OCCCc2sc(N3CCc4cccc(C(=O)Nc5nc6ccccc6s5)c4C3)nc2C(=O)O)c(F)c1 [A-1155463]
# output 170

---

tested on: Fibroblast; assay: Multiplex assay against human fibroblast; format: toxicity, cell-based; details: 12 h, 10 µM, compound concentration 10 uM, replicate 1
Each entry below lists one item and its recorded Population Fragmented Nuclei (%) value.
Record the value in %, omitting the unit from your answer.

Please review the following examples before continuing.
O=C1NCN(c2ccccc2)C12CCN(CCCOc1ccc(F)cc1)CC2 [SPIRAMIDE]    25
CN(C)C(=O)/C(C#N)=C/c1ccc(-c2nc3cnc4[nH]ccc4c3n2C2CCCCC2)o1    28

Shift focus to the following entry.
# input Which measured Population Fragmented Nuclei (%) value corresponds to `CNc1nc(NCc2ccc(NS(C)(=O)=O)cc2Cl)cc(-c2ccccn2)n1` ?
# output 23

---

tested on: HEK-293T; assay: Multiplex assay against HEK293T; type: toxicity, cell-based; conditions: human, 24 h, 1 µM, compound concentration 1 uM, replicate 2
Listing of recorded Population Membrane Permeable-Phenotype (%) by entry.
Form entry: value (%) — number only.

CN1CCCC(n2nc(Cc3ccc(Cl)cc3)c3ccccc3c2=O)CC1.Cl (centres undefined) [AZELASTINE HYDROCHLORIDE]    5

# input Lab note: need Population Membrane Permeable-Phenotype (%) with HEK-293T for entry `Cc1[nH]c(/C=C2\C(=O)Nc3ccc(S(=O)(=O)N(C)c4cccc(Cl)c4)cc32)c(C)c1C(=O)N1CCN(C)CC1` , please look it up.
# output 7

# input Look up Population Membrane Permeable-Phenotype (%) with HEK-293T for this compound: `OC1(c2ccc(Cl)cc2)CCN(Cc2c[nH]c3ccccc23)CC1`
# output 8

# input API: value(readout=Population Membrane Permeable-Phenotype (%), system=HEK-293T) for record CC(C)NCC(O)COc1ccc(CCOCC2CC2)cc1.Cl (centres undefined) [BETAXOLOL HYDROCHLORIDE]
# output 7

---

test system: U2OS; assay: Multiplex assay against U2OS; assay type: toxicity, cell-based; settings: human, 24 h, 10 µM, compound concentration 10 uM, replicate 1
property: Population Mitotic Cells (%)
Unit % implied. Number only.

// solved cases for Population Mitotic Cells (%) follow
C=CC(=O)Nc1cc2c(Nc3ccc(F)c(Cl)c3)ncnc2cc1OCCCN1CCOCC1.Cl.Cl [CANERTINIB DIHYDROCHLORIDE]    29
Cc1sc2c(c1C)C(c1ccc(Cl)cc1)=N[C@@H](CC(=O)OC(C)(C)C)c1nnc(C)n1-2    12
OC1(c2ccc(Cl)cc2)CCN(Cc2c[nH]c3ccccc23)CC1    38
COc1ncc(-c2ccc3nccc(-c4ccnnc4)c3c2)cc1NS(=O)(=O)c1ccc(F)cc1F    29
CC[C@H](C)C(=O)O[C@H]1C[C@@H](C)C=C2C=C[C@H](C)[C@H](CC[C@@H]3C[C@@H](O)CC(=O)O3)[C@H]21    75

# input Report Population Mitotic Cells (%) for CN1CCC[C@@H]1CCO[C@](C)(c1ccccc1)c1ccc(Cl)cc1.O=C(O)/C=C/C(=O)O [CLEMASTINE FUMARATE] tested on U2OS.
# output 35
